target: Bifunctional protein GlmU (Mycobacterium tuberculosis (strain ATCC 25618 / H37Rv)); assay: inhibition of mycobacterial GlmU enzyme – biochemical, glucosamine-1-phosphate acetyltransferase (AID 1376);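 further: 0% = complete reaction with vehicle and 100% = reaction without substrate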; settings: M. tuberculosis GlmU acetyltransferase enzyme assay; hits give high values;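 tested at 30 µM in the primary screen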
In all, about 220,000 compounds went through this assay and about 530 (0.24%) were called active. For the sample, actives were picked, then their nearest neighbours and some compounds at random. Entries with a potency or affinity are not part of this list.
I'd be grateful if you could share measured inhibition for these entries.
Answers are plain numbers, in %.

Below, each entry is followed by its recorded inhibition result.
IN: Provide value of inhibition for this record tested with Bifunctional protein GlmU (Mycobacterium tuberculosis (strain ATCC 25618 / H37Rv)): `N#Cc1cccc(-n2nnnc2-c2ccc3c(c2)OCO3)c1`
OUT: 0.01

IN: Provide value of inhibition for this record tested with Bifunctional protein GlmU (Mycobacterium tuberculosis (strain ATCC 25618 / H37Rv)): `CCOC(=O)N1CCN(c2c(NCc3ccc(N(C)C)cc3)c(=O)c2=O)CC1`
OUT: -1.67

IN: Provide value of inhibition for this record tested with Bifunctional protein GlmU (Mycobacterium tuberculosis (strain ATCC 25618 / H37Rv)): `Cc1cccc(C)c1-n1cccc1/C=C1\SC(=S)N(c2cccc(C(=O)O)c2)C1=O`
OUT: -2.25

Provide inhibition values for the following items, in order.
1. CCCC1=NN2C(=N)/C(=C\c3ccc(SCc4ccco4)o3)C(=O)N=C2S1
2. COc1cc(OC)c(-c2c3cc(O)c(=O)cc-3oc3cc(O)c(O)cc23)cc1OC
3. COc1ccc(C2(C)NC(=O)N(CC(=O)Nc3ccc(-c4nc5ccc(C)cc5s4)cc3)C2=O)cc1 (configuration not stated)
4. O=C1NC(=S)S/C1=C/c1ccc(N2CCOCC2)o1

OUT:
1. 30.6
2. 8.01
3. -4.16
4. 11.4

* * *

target: Bifunctional protein GlmU (Mycobacterium tuberculosis (strain ATCC 25618 / H37Rv)); assay: inhibition of mycobacterial GlmU enzyme – biochemical, glucosamine-1-phosphate acetyltransferase (AID 1376);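 further: 0% = complete reaction with vehicle and 100% = reaction without substrate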; details: M. tuberculosis GlmU acetyltransferase enzyme assay; hits give high values;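 tested at 30 µM in the primary screen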
In all, about 220,000 compounds went through this assay and about 530 (0.24%) were called active. This is one part of a sample in which actives are shown more often than they occur. Potency and affinity values are given separately.
I'd be grateful if you could share measured inhibition for these entries.
Answers are plain numbers, in %.

Provide inhibition values for the following items, in order.
1. CC(C)CCn1c(=O)c2ccccc2n2c(CN3CCCC3)nnc12
2. COC(=O)c1ccc(S(=O)(=O)N2CCC(O)CC2)n1C
3. Cc1nc2ccccc2cc1C(=O)N/N=C/c1cccc([N+](=O)[O-])c1
4. O=C1S/C(=C\c2ccc(Cl)cc2)C(=O)N1CCn1cnnn1
5. CC1CN(/C(=N\S(=O)(=O)c2ccccc2)c2ccccc2)CC(C)O1 (configuration not stated)

OUT:
[-3.44, -2.92, 1.15, -3.11, -2.86]

* * *

I'd be grateful if you could share measured inhibition for these entries.
biological target: Bifunctional protein GlmU (Mycobacterium tuberculosis (strain ATCC 25618 / H37Rv)) (UniProt P9WMN3); assay: inhibition of mycobacterial GlmU enzyme – biochemical, glucosamine-1-phosphate acetyltransferase (AID 1376);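 further: 0% = complete reaction with vehicle and 100% = reaction without substrate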; conditions: M. tuberculosis GlmU acetyltransferase enzyme assay; hits give high values;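 tested at 30 µM in the primary screen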
Sequence (P9WMN3 whole entry, looked up): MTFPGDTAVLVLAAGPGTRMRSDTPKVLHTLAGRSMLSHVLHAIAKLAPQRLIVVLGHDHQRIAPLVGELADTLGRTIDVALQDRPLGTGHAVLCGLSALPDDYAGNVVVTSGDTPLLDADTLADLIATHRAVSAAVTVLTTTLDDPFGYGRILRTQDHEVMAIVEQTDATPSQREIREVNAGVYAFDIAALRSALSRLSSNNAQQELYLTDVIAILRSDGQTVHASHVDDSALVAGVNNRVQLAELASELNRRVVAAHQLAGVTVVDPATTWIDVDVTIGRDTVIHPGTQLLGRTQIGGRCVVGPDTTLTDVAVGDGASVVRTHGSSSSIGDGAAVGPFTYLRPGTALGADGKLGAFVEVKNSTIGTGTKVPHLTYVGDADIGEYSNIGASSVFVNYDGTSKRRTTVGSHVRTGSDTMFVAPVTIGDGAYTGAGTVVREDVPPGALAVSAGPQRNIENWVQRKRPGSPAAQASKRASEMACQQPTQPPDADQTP
The campaign covered roughly 220,000 compounds. About 530 (0.24%) were called active. For the sample, actives were picked, then their nearest neighbours and some compounds at random. Measured potencies and affinities stand elsewhere.
Numbers only, in %.

Below, each entry is followed by its recorded inhibition result.
IN: Entry `O=C1NC(=O)N(c2ccc3c(c2)OCO3)C(=O)/C1=C\c1ccc(-c2ccccc2C(=O)O)o1` : reported inhibition = ?
OUT: 9.19

IN: Entry `Cc1ccc([N+](=O)[O-])cc1S(=O)(=O)Nc1ccccn1` : reported inhibition = ?
OUT: 12.5

IN: Entry `Cc1ccc(C)c(N2C(=N)S/C(=C\c3ccc(-c4ccccc4C(=O)O)o3)C2=O)c1` : reported inhibition = ?
OUT: 13.1

IN: Entry `Clc1ccc(Cn2cnc3ccccc32)cc1` : reported inhibition = ?
OUT: -0.58

IN: Entry `Cc1ccc(N2NC(=O)/C(=C/c3ccc(-c4ccc(Cl)c(C(=O)O)c4)o3)C2=O)cc1` : reported inhibition = ?
OUT: 7.4

IN: Entry CC(C)C(NC(=O)C1CCC(C(C)(C)C)CC1)C(=O)NCc1cccnc1 (stereo not given) : reported inhibition = ?
OUT: 5

IN: Entry Cc1ccc(N2C(=O)c3ccccc3C2C(=O)c2ccc(C)c(C)c2O)cc1 (stereo not given) : reported inhibition = ?
OUT: -5.61

IN: Entry `COCCNC(=O)[C@H]1C[C@@H]1[C@H](NP(=O)(c1ccccc1)c1ccccc1)c1ccccc1` : reported inhibition = ?
OUT: 0.38

Provide inhibition values for the following items, in order.
1. Cc1ccc2nc(-c3ccc(NC(=O)CSCC(=O)O)cc3)sc2c1
2. CCOC(=O)c1cnc(-n2nc(C)cc2C)nc1Oc1ccccc1F
3. CN1C(=O)C(=Cc2ccc(Sc3ccccc3)o2)C(=O)N(C)C1=O
4. N/C(=N\O)c1ccc(NC(=O)c2cccs2)cc1
5. CC(C)OC(=O)c1cccc(C(=O)Nc2cccc(NC(=O)c3cccc(C(=O)OC(C)C)n3)n2)n1

OUT:
1. 4.5
2. -3.61
3. -2.7
4. 4.24
5. 2.69

Provide inhibition values for the following items, in order.
1. CC(C)(C)c1csc(SCC(=O)Nc2ccc(Cl)cn2)n1
2. Cc1ccc(Sc2ccc(/C=C3/C(=O)NN(c4ccccc4)C3=O)o2)cc1

OUT:
5.51
4.6

* * *

molecular target: Bifunctional protein GlmU (Mycobacterium tuberculosis (strain ATCC 25618 / H37Rv)) (UniProt P9WMN3); experiment: inhibition of mycobacterial GlmU enzyme – biochemical, glucosamine-1-phosphate acetyltransferase (AID 1376);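 further: 0% = complete reaction with vehicle and 100% = reaction without substrate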; conditions: M. tuberculosis GlmU acetyltransferase enzyme assay;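 tested at 30 µM in the primary screen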
Out of some 220,000 compounds screened, about 530 (0.24%) were called active. No stated cut-off is given here; in the data, active means inhibition above about 13%; inconclusive means no clear call, values can overlap the other calls; inactive means below that. This excerpt belongs to a sample that is enriched for actives. Results with a measured potency or affinity are listed apart.
Pick one and only one: label 1 (active), label 0 (inactive)

Take a look at these entries with their results.
IN: Hi, sorry to bother you, what did the test record for `CS(=O)(=O)N1CCC(C(=O)N2CCN(Cc3ccccc3)CC2)CC1` ?
OUT: label 0

IN: Hi, sorry to bother you, what did the test record for `O=C(N/N=C/c1ccc(-c2ccc([N+](=O)[O-])cc2)o1)c1cccnc1` ?
OUT: label 0

IN: Hi, sorry to bother you, what did the test record for `COc1nccnc1NS(=O)(=O)c1ccc(NC(=S)NC(=O)/C=C/c2ccc(F)cc2)cc1` ?
OUT: label 0

Lab note: next compound to report on.
IN: Hi, sorry to bother you, what did the test record for `CCS(=O)(=O)N1CCC(C(=O)N2CCN(Cc3ccccc3)CC2)CC1` ?
OUT: label 0

* * *

target: Bifunctional protein GlmU (Mycobacterium tuberculosis (strain ATCC 25618 / H37Rv)); assay: inhibition of mycobacterial GlmU enzyme – biochemical, glucosamine-1-phosphate acetyltransferase (AID 1376);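 further: 0% = complete reaction with vehicle and 100% = reaction without substrate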; settings: M. tuberculosis GlmU acetyltransferase enzyme assay; hits give high values;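 tested at 30 µM in the primary screen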
The whole screen tested about 220,000 compounds, of which about 530 (0.24%) were called active. Many of the other results were omitted from the sample, so actives are more common in it than they were. Entries with a potency or affinity are not part of this list.
readoutType: inhibition (%)
One number for each entry, in %.

IN: Entry `COc1ccc(C(=O)NC(=S)Nc2ccc(N3CCCC3)cc2)cc1` : reported inhibition = ?
OUT: -3.46

IN: Entry `CS(=O)(=O)N(Cc1ccco1)Cc1ccccc1Cl` : reported inhibition = ?
OUT: 1.25

IN: Entry COc1ccc(N2CCN(C(CNC(=O)C(=O)NCCCn3ccnc3)c3cccnc3)CC2)cc1 (stereo unspecified) : reported inhibition = ?
OUT: 4.95

IN: Entry `O=C(C(=S)N1CCOCC1)c1c[nH]c2ccccc12` : reported inhibition = ?
OUT: -1.14

Provide inhibition values for the following items, in order.
1. COc1ccc(OCCC(=O)OCC(=O)NCCC2=CCCCC2)cc1
2. O=c1oc2ccccc2c(Nc2ccc(O)cc2)c1[N+](=O)[O-]

OUT:
1. -0.76
2. 13.3

* * *

target: Bifunctional protein GlmU (Mycobacterium tuberculosis (strain ATCC 25618 / H37Rv)); assay: inhibition of mycobacterial GlmU enzyme – biochemical, glucosamine-1-phosphate acetyltransferase (AID 1376);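 further: 0% = complete reaction with vehicle and 100% = reaction without substrate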; conditions: M. tuberculosis GlmU acetyltransferase enzyme assay; hits give high values;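 tested at 30 µM in the primary screen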
The campaign covered roughly 220,000 compounds. About 530 (0.24%) were called active. For the sample, actives were picked, then their nearest neighbours and some compounds at random. Measured potencies and affinities stand elsewhere.
readoutType: inhibition (%)
Answers are plain numbers, in %.

Below, each entry is followed by its recorded inhibition result.
IN: Provide value of inhibition for this record tested with Bifunctional protein GlmU (Mycobacterium tuberculosis (strain ATCC 25618 / H37Rv)): `Cc1cc(N)n(-c2ccc3ccccc3c2)n1`
OUT: 0.94

IN: Provide value of inhibition for this record tested with Bifunctional protein GlmU (Mycobacterium tuberculosis (strain ATCC 25618 / H37Rv)): `CC(=O)Nc1cccc(OCc2ccc(S(=O)(=O)Cc3ccccc3)cc2)c1`
OUT: -12.3

IN: Provide value of inhibition for this record tested with Bifunctional protein GlmU (Mycobacterium tuberculosis (strain ATCC 25618 / H37Rv)): `CCc1ccc(CN(C)CCc2ccccn2)cc1`
OUT: 1.82

IN: Provide value of inhibition for this record tested with Bifunctional protein GlmU (Mycobacterium tuberculosis (strain ATCC 25618 / H37Rv)): `Clc1ccc(-c2csc(Nc3cccnc3)n2)cc1`
OUT: -1.87

We next turn to a different compound, shown below.
IN: Provide value of inhibition for this record tested with Bifunctional protein GlmU (Mycobacterium tuberculosis (strain ATCC 25618 / H37Rv)): `CC(C)CNc1c(N)c(=O)oc2ccccc12`
OUT: -2.95
